Data origin, for the record: paper PMC7933116

- Measured Target: MCT1 (Homo sapiens, UniProt P53985)
- Sequence (P53985 whole entry): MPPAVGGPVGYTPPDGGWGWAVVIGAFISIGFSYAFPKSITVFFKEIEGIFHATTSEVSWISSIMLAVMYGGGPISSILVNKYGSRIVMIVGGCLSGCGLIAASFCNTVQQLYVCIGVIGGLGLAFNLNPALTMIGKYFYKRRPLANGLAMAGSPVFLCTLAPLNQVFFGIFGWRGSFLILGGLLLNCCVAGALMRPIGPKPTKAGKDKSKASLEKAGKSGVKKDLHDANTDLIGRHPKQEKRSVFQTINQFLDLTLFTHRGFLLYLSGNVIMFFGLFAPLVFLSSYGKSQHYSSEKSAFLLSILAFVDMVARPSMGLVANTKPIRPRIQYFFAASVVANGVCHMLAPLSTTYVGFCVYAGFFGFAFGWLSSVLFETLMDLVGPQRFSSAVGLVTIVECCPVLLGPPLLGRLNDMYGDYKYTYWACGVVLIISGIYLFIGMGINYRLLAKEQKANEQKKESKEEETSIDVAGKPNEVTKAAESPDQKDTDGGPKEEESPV
- Test Method Notes: BCECF fluorescence lactate transport assay in MCT1-expressing BT20 cells
Reported Property: IC50 (µM)

> print(dat)
                                test.smiles                      measured.target  reported.property  value.observed
1  CC(C)(OCc1cc(-c2cccc(OC3CC3)c2)n(-c2ccccc2Cl)n1)C(=O)O  MCT1 (Homo sapiens, UniProt P53985)               IC50              24
